Each recorded value in this set is attributed to ChEMBL document CHEMBL4052826.

# Tested on: BXPC-3
# runDescription: Cytotoxicity against human BxPC3 cells assessed as decrease in cell proliferation after 72 hrs by MTT assay
# Assay type: functional, cell-based
# experimentalSetup: BXPC-3, 72 h
resultType: pIC50
As a rule, pIC50 stands for the negative log10 of the concentration, concentration in M.

Ask | Param readout = pIC50; param system = BXPC-3; param query = "COc1cccc(NC2=CC(=O)c3ncncc3C2=O)c1" ; response: value
Reply | 5.74

Ask | What do we get for "O=C1C(Nc2ccc(Oc3ccccc3)cc2)=CC(=O)c2ncncc21" ?
Reply | 5.44

Ask | Check "Nc1ccc(-c2ccc(NC3=CC(=O)c4ncncc4C3=O)cc2)cc1" too.
Reply | 5.46

Ask | Same for "COc1cc(NC2=CC(=O)c3ncncc3C2=O)cc(OC)c1OC"
Reply | 5.80

Ask | And for "O=C1C(NCc2ccc(F)cc2)=CC(=O)c2ncncc21" ?
Reply | 5.85

More entries:
Ask | // map "COc1ccc(-c2ccc(NC3=CC(=O)c4ncncc4C3=O)cc2)cc1" to recorded pIC50 (system: BXPC-3)
Reply | 5.46

Ask | # repeat for "COc1ccc(NC2=CC(=O)c3ncncc3C2=O)cc1OC"
Reply | 5.82

Ask | Input "O=C1C(Nc2ccc(-c3ccc(F)cc3)cc2)=CC(=O)c2ncncc21"
Reply | 5.36

Ask | Also check "CCc1ccc(-c2ccc(NC3=CC(=O)c4ncncc4C3=O)cc2)cc1"
Reply | 5.51

Ask | Could you do the same for "CCOC(=O)c1ccc(NC2=CC(=O)c3ncncc3C2=O)cc1" , please?
Reply | 5.23

Ask | Another compound: "O=C1C(Nc2ccc(-c3ccccc3)cc2)=CC(=O)c2ncncc21"
Reply | 6.30

====

# Tested on: PANC-1
# runDescription: Cytotoxicity against human PANC1 cells assessed as decrease in cell proliferation after 72 hrs by MTT assay
# Format: functional, cell-based
# experimentalSetup: PANC-1, 72 h
resultType: IC50 (µM)
Reply with just the number (in µM).

Ask | Quick check: IC50 of "Cc1ccc(-c2ccc(NC3=CC(=O)c4ncncc4C3=O)cc2F)cc1" ?
Reply | 4.8

Ask | Can you handle "CCc1ccc(-c2ccc(NC3=CC(=O)c4ncncc4C3=O)cc2)cc1" next?
Reply | 1.2

More entries:
Ask | Could you share which IC50 value was measured for "O=C(NCCC[P+](c1ccccc1)(c1ccccc1)c1ccccc1)c1ccc(NC2=CC(=O)c3ncncc3C2=O)cc1" ?
Reply | 11.7

====

Measured IC50 accompanies every entry in the list below.
# System: BXPC-3
# runDescription: Cytotoxicity against human BxPC3 cells assessed as decrease in cell proliferation after 72 hrs by MTT assay
# Type: functional, cell-based
# experimentalSetup: BXPC-3, 72 h
Answer format: numeric, µM implied, no suffix.

Consider the reported IC50 for these compounds:
Ask | Report IC50 for "O=C(NCCC[P+](c1ccccc1)(c1ccccc1)c1ccccc1)c1cccc(NC2=CC(=O)c3ncncc3C2=O)c1" please.
Reply | 21.3

Ask | Next compound: "O=C1C(Nc2ccc(CO)cc2)=CC(=O)c2ncncc21"
Reply | 5.7

Ask | Repeat with "Cc1ccc(-c2ccc(NC3=CC(=O)c4ncncc4C3=O)cc2F)cc1"
Reply | 5

Continuing:
Ask | What does the data say about its IC50? Entry: "O=C1C(Nc2ccc(OC(F)(F)F)cc2)=CC(=O)c2ncncc21"
Reply | 0.9

Ask | Input "COC(=O)c1ccc(NC2=CC(=O)c3ncncc3C2=O)cc1"
Reply | 5.8

Ask | Repeat with "COc1cc(NC2=CC(=O)c3ncncc3C2=O)cc(OC)c1"
Reply | 16.3

====

# Tested on: BXPC-3
# runDescription: Cytotoxicity against human BxPC3 cells assessed as decrease in cell proliferation after 72 hrs by MTT assay
# Assay type: functional, cell-based
# experimentalSetup: BXPC-3, 72 h
IC50 listing for selected compounds.

Ask | # query: IC50 of entry "NC(=O)c1ccc(NC2=CC(=O)c3ncncc3C2=O)cc1"
Reply | > 10 µM

Ask | Quick one: "O=C1C(Nc2cccc(B(O)O)c2)=CC(=O)c2ncncc21"
Reply | > 10 µM

Ask | How about this compound: "Nc1ccc(C(=O)NCCC[P+](c2ccccc2)(c2ccccc2)c2ccccc2)cc1"
Reply | > 30 µM

Kindly review the next compound as well.
Ask | I have this compound here, "Nc1cccc(C(=O)NCCC[P+](c2ccccc2)(c2ccccc2)c2ccccc2)c1" , and I need its recorded IC50.
Reply | > 30 µM

====

# Test system: BXPC-3
# runDescription: Cytotoxicity against human BxPC3 cells assessed as decrease in cell proliferation after 72 hrs by MTT assay
# Assay type: functional, cell-based
# experimentalSetup: BXPC-3, 72 h
resultType: IC50 (µM)
Please reply with the bare figure in µM and do not write the unit itself.

In the examples that follow, each entry is paired with its recorded IC50.
Ask | Given the entry "CC(=O)c1cccc(NC2=CC(=O)c3ncncc3C2=O)c1" , what IC50 was observed with BXPC-3?
Reply | 5.2

Ask | Moving on to the next compound: "COc1ccc(NC2=CC(=O)c3ncncc3C2=O)cc1"
Reply | 1.7

Ask | Cool, now "O=C(NCCC[P+](c1ccccc1)(c1ccccc1)c1ccccc1)c1ccc(NC2=CC(=O)c3ncncc3C2=O)cc1"
Reply | 21.5

As a next step, examine the compound that follows.
Ask | Checklist item: IC50 tested on BXPC-3, entry "O=C1C=CC(=O)c2ncncc21" , value?
Reply | 19.4
